Tested on: OVCAR-8 ovarian
Test: NCI-60 one-dose screen, 48 h (100 = growth as untreated, 0 = no growth, -100 = all killed)
Conditions: 10 µM
About 83,000 compounds went through this panel and 20% of them were active in at least one assay; those are over-represented in the sample as a whole.
TEST_READOUT: growth (%)
Just the number please, in %, no unit attached.

Guide cases for growth, answers given:
N#CCCN1C/C(=C/c2ccccc2)C(=O)/C(=C/c2ccccc2)C1    0.855
COc1ccc(/C=C/C(=O)Nc2ccc(-c3nc4ccc(F)cc4s3)cc2)cc1    103
COc1ccc(OC)c2c1C(=O)CC2C (stereo not given)    105
COc1ccc(-c2nsc3c2NC(=O)CC3c2ccc(F)cc2)cc1 (stereo not given)    46.1
O=C1/C(=C\c2ccc(Cl)cc2)CN(C(=S)Nc2ccccc2)C/C1=C\c1ccc(Cl)cc1    -5.17

Record `COc1cc(C(=O)N2CCN(c3ccccc3OC)CC2)c(N)cc1OCCCN1CCN(c2ccccc2OC)CC1` : what is its growth with OVCAR-8 ovarian?
101

Consider next the compound `COc1ccc2c(c1)C(=O)c1c-2c(OCCN(C)C)nc2ccccc12` in the same way.
14.3

----------
Entries annotated with measured growth
Test system: A549/ATCC NSCLC
Assay: NCI-60 one-dose screen, 48 h (100 = growth as untreated, 0 = no growth, -100 = all killed)
Settings: 10 µM
About 83,000 compounds went through this panel and 20% of them were active in at least one assay; those are over-represented in the sample as a whole.
Number in %, nothing else.

COc1ccc(-c2nc3sccn3c2-c2nc3c([nH]2)C(=O)c2ccccc2C3=O)cc1    67.5
CCCC(F)C(=O)O (stereo not drawn)    92

--- query ---
Which growth value belongs to `CCCCOC(=O)Oc1ccc(C(=O)Oc2ccc(OCC)cc2)cc1` ?
85.6

----------
Tested on: COLO 205 colon
Assay: NCI-60 one-dose screen, 48 h (100 = growth as untreated, 0 = no growth, -100 = all killed)
Details: 10 µM
This is part of a sample that, as a whole, favours compounds with a hit. Of some 83,000 tested, about 20% had one in any assay. Active and inactive are the calls of the source. Rule for the calls: active = growth percent below 10; inactive = the rest.
Listing of recorded growth by entry.

CSc1cc(SC)ncn1    104% (inactive)
CNc1ccc(CSc2ccc(C)cc2)cc1    86.4% (inactive)

Kindly review the next compound as well.
Observed growth on COLO 205 colon for `CCN(CC)CCN1CC(=O)Nc2cc(Cl)ccc21` , please.
102% (inactive)

----------
System: NCI-H23 lung
Experiment: NCI-60 one-dose screen, 48 h (100 = growth as untreated, 0 = no growth, -100 = all killed)
Conditions: 10 µM
About 83,000 compounds went through this panel and 20% of them were active in at least one assay; those are over-represented in the sample as a whole.
Categorize each record by its growth using low group = under 40%, middle group = from 40% up to 90%, high group = 90% and over

COc1ccc(/C=C2/CN(C(=O)c3ccccc3F)C/C(=C\c3ccc(OC)cc3)C2=O)cc1    middle group
N=c1c2c(-c3ccccc3)c(-c3ccccc3)n(Cc3ccccc3)c2ncn1CCCO    middle group
COc1cc([C@@H]2c3cc4c(cc3C(Br)[C@H]3COC(=O)[C@H]23)OCO4)cc(OC)c1OC (some centres undefined)    low group

Kindly identify the class of `Cc1cccc2c1O/C(=C\c1ccc([N+](=O)[O-])o1)C2=O` .
low group

Okay, and `O=C(Nc1ccccc1)Nc1cccc(-n2cc(-c3ccncc3)c(-c3ccc(O)c(Cl)c3)n2)c1` ?
middle group

And for C=C(C(=O)c1ccccc1)C(NC(C)(C)C)c1ccccc1 (centres undefined) ?
low group

Would you mind doing `COc1cc(/C=C/C(=O)c2ccc(Cl)cc2)ccc1OS(=O)(=O)c1ccc(C)cc1` as well?
high group

Cool, now `CN(CCc1ccccn1)c1ccccc1`
high group

Likewise for N#CSCC1CC(O)(c2ccccc2)CC(c2ccc(Cl)cc2)O1 (centres undefined) ?
low group

// next record CCc1ccc2c(c1)N(CCO)C1=C(C(=O)OC1)C2c1cc(OC)c(OC)c(OC)c1 (centres undefined)
low group

Then `O=C(Nc1cccc(Br)c1)c1cc(=O)[nH]c2ccccc12` ?
high group

Record: `CN1CCC(CNc2cc(C3(C(=O)Nc4cc(C(=O)Nc5ccc(Cl)c(C(F)(F)F)c5)ccc4F)CC3)ncn2)CC1`
middle group

Follow-up entry: `CCOC(=O)N/N=C\C(C)=N\NC(=O)OCC`
high group

Follow-up entry: `CC(C)N(CCNc1nc(C(Cl)(Cl)Cl)nc2cc(Cl)ccc12)C(C)C`
low group

Now try `CN1CC[C@@H](c2c(O)cc(O)c3c(=O)cc(-c4ccccc4Cl)oc23)[C@@H](O)C1` .
low group
